Hello, the source for this data is patent US20250297004A1, in case you need it.

tested-on: T1, human Nectin-4 (Homo sapiens, UniProt Q96NY8)
T1 sequence (Q96NY8 32-510): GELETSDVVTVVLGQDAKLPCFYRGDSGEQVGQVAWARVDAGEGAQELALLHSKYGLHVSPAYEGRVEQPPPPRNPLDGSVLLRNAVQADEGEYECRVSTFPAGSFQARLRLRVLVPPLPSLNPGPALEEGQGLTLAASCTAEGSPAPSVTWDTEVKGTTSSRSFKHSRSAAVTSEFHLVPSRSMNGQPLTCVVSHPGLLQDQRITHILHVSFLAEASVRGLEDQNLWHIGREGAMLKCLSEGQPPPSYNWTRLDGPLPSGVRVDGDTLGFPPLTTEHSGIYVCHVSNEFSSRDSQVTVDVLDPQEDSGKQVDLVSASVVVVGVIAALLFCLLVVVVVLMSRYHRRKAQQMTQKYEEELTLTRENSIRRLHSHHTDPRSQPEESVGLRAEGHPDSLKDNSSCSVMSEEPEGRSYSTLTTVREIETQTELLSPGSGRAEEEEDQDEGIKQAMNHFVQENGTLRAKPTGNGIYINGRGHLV
experiment-description: Binding to human Nectin-4 by SPR
setup-conditions: SPR; human IgG1 isotype antibodies; second set (Table 7)
pKd: −log10 of the molar value.
# pKd annotations
endpoint-label: pKd

molecule: H0L0 (antibody, human IgG1, V domains shown, human IgG1 isotype; also called HOLO; humanized 5E7 variant H0L0) VH: QVQLVQSGAEVKKPGASVKVSCKASGYTFTSYWMHWVRQAPGQGLEWMGEIDPSDSYTNYNQKFKGRVTMTRDTSTSTVYMELSSLRSEDTAVYYCARGYGNYGDYWGQGTLVTVSS VL: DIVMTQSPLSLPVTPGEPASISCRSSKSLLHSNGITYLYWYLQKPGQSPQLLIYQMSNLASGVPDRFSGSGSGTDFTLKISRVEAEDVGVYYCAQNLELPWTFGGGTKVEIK
endpoint-label: pKd
observed-measurement: 7.10
//
molecule: H7L1 (antibody, human IgG1, V domains shown, human IgG1 isotype) VH: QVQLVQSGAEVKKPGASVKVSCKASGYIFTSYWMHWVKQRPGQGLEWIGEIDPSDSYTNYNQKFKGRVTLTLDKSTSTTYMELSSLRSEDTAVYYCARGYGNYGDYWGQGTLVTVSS VL: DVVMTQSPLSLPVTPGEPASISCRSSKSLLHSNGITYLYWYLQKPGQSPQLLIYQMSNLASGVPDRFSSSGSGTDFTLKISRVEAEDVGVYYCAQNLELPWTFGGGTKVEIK
endpoint-label: pKd
observed-measurement: 7.53
//
molecule: H4L2 (antibody, human IgG1, V domains shown, human IgG1 isotype) VH: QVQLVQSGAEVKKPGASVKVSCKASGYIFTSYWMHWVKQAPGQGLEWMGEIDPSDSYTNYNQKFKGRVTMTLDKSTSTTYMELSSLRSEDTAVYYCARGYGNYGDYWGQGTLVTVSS VL: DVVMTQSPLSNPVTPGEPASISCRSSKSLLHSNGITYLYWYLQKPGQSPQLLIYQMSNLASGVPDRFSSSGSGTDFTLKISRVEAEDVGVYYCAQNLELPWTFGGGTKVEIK
endpoint-label: pKd
observed-measurement: 7.57
//
molecule: H4L1 (antibody, human IgG1, V domains shown, human IgG1 isotype) VH: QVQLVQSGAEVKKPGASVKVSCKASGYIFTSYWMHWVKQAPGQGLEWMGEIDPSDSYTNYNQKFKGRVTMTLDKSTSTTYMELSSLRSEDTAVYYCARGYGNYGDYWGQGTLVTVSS VL: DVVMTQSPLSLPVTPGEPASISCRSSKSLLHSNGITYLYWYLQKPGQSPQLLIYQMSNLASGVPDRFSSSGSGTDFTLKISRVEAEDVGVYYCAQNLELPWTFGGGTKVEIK
endpoint-label: pKd
observed-measurement: 7.71
